What TLR8-wt (LEC) was measured for each of the following?
assayedTarget: human TLR8 (Homo sapiens, UniProt Q9NR97)
Construct: expressed in transfected cells; host or cells: HEK293
Sequence (Q9NR97 27-1041): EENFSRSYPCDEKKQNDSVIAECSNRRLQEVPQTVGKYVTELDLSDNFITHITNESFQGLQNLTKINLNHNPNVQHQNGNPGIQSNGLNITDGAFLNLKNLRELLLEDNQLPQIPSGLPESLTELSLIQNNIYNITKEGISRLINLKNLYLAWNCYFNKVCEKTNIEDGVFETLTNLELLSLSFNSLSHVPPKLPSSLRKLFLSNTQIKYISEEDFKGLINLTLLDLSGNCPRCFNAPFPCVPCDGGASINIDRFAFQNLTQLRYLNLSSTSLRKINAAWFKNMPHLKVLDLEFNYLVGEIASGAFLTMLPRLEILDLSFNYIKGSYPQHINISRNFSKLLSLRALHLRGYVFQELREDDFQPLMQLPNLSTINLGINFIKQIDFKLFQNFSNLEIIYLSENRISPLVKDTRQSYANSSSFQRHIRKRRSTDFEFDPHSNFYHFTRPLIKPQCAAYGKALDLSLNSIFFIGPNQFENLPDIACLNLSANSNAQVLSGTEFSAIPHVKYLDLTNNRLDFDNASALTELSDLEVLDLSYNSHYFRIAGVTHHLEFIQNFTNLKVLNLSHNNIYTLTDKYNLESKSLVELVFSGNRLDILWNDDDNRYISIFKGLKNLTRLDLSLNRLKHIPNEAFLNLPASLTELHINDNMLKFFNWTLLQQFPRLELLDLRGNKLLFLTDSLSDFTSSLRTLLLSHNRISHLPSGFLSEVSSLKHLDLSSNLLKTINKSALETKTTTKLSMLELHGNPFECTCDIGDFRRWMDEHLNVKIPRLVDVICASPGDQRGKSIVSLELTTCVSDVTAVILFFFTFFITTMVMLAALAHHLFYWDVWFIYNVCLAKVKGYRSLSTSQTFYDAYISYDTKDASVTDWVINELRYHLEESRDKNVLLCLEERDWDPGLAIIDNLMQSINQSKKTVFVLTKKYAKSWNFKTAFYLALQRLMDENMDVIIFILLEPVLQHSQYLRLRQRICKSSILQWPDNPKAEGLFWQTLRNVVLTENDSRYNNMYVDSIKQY
test: TLR8 wild type NFκB-luc cellular reporter assay
Assay type: cell-based
Parameters: unit not given here
conditionSummary: HEK293 NFκB-luc reporter, 6 hours incubation; second part of table
Numbers only.

>>> print(df.to_string())
                            recordsmiles  valuereported
0  CCCCNc1nc(N)nc2cc(C(=O)N3CCOCC3)ccc12           0.53
1    CCC[C@@H](CO)Nc1nc(N)nc2ccc(OC)cc12           0.53
2              CCCCNc1nc(N)nc2ccc(F)cc12           0.10

Please give TLR8-wt (LEC), item by item, for the list that follows.
1. CCC[C@@H](CO)Nc1nc(N)nc2c(Cl)cccc12
2. CCC[C@@H](CCO)Nc1nc(N)nc2ccc(F)cc12
3. CCCCNc1nc(N)nc2cc(C(=O)NCc3ccccn3)ccc12
4. CCCCNc1nc(N)nc2cc(CO)ccc12
5. CCCC[C@@H](CCO)Nc1nc(N)nc2cc(F)ccc12
6. CCCCNc1nc(N)nc2ccc(-c3cnn(C)c3)cc12

[0.38, 0.44, 1.69, 0.13, 0.03, 2.55]
